# assay_text: in vitro
# cond: rat, liver microsomes
measured_endpoint: remaining at 1 h, 1.09 µM

Q: // remaining at 1 h, 1.09 µM lookup, key: CC(C)NCC(O)COc1cccc2ccccc12 (stereo not shown)
Result: 58.7%

---

# assay_text: in vitro
# cond: liver microsomes
measured_endpoint: half-life at 1.09 µM

Q: Which half-life at 1.09 µM is listed for CCOc1ccc(NC(C)=O)cc1 [phenacetin] ?
Result: ~1.33 h
